A collection of compounds and their measured TGI
System: MCF7 breast
protocol.summary: NCI tumour cell line growth inhibition, 48 h
Where a SMILES comes first, the peptide text is derived from it. The star is where a group is joined. Cbz = O=C(OCc1ccccc1)*

These solved cases illustrate the format of a correct answer.
CC(=O)OCC1OC(n2c(C)c(N=Nc3ccc(Cl)cc3)c(C)c(C#N)c2=S)C(OC(C)=O)C(OC(C)=O)C1OC(C)=O (centres undefined); > 100 µM
OC(C/C=N/N=C/CC(O)(C(F)(F)Cl)C(F)(F)Cl)(C(F)(F)Cl)C(F)(F)Cl; > 10 µM
COc1ccc(/C=C/c2cnccn2)cc1OC; > 10 µM
Cn1c(=S)c2[nH]c(SCCCc3ccccc3)nc2n(C)c1=O; > 100 µM

TGI in this record for O=Cc1ccc(-c2ccc(-c3ccc(CO)s3)o2)s1 : > 100 µM

TGI in this record for CCOC(=O)CCC(NC(=O)OCc1ccccc1)C(=O)NC(CCC(=O)OCC)C(=O)OCC (centres undefined) (Cbz-Glu(OEt)-Glu(OEt)-OEt; configuration not given here) : > 100 µM

TGI in this record for CN(C)CCCNc1ccc2ncn3c4ccc(O)cc4c(=O)c1c23 : 1.27 µM

TGI in this record for O=c1[nH]c2nc3ccccc3c(=O)n2/c1=C/c1cccs1 : > 100 µM

Just for reference, PubChem BioAssay (NCI) is where these values come from.
